Assign selectivity ratio at 24 h to each entry below.
- Test Method Notes: in vivo
- Condition Parameters: mouse, po

Your task in this section: give selectivity ratio at 24 h for each listed record.
1. O=C1CN(c2ccc(Cl)cc2)C(=O)N1S(=O)(=O)c1ccc(Cl)cc1
2. Cc1ccccc1S(=O)(=O)N1C(=O)CN(c2ccccc2)C1=O

// result
["≥ 50", "≥ 50"]

----------
- Test Method Notes: in vivo
- Condition Parameters: mouse, po
Test Readout: LD50 at 24 h

// query Return reported LD50 at 24 h; argument: O=C1CN(c2ccc(Cl)cc2)C(=O)N1S(=O)(=O)c1ccc(Cl)cc1 [Compound 1]
// result ≥ 1000 mg/kg

***
// query Name the recorded LD50 at 24 h for Cc1ccccc1S(=O)(=O)N1C(=O)CN(c2ccccc2)C1=O [Compound 2] .
// result ≥ 1000 mg/kg

----------
- Measured On: cathepsin G (Homo sapiens, UniProt P08311)
- Construct: cathepsin G (product of Calbiochem Co.) derived from human neutrophil; purchased Calbiochem Co; host or cells: human neutrophil
- Sequence (P08311 21-244 limits assumed): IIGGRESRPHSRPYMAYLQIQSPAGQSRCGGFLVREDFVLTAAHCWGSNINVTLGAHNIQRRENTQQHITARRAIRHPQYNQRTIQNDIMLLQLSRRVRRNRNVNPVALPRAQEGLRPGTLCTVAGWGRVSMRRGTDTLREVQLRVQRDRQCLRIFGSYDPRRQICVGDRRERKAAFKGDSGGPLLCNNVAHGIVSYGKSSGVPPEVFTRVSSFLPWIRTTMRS
- Test Method Notes: Inhibitory activity against cathepsin G (Ang I to Ang II conversion, HPLC)
- Assay type: biochemical
- Condition Parameters: human neutrophil cathepsin G, 37° C., pH 7.5, Ang I substrate; read-out: Inhibitory activities against enzymes (IC50), Cathepsin
Test Readout: pIC50
Numbers only, as −log10 of the molar value.

These solved cases illustrate the format of a correct answer.
// query Report pIC50 for `O=C1CN(c2ccccc2)C(=O)N1C(=O)c1ccc(-c2ccccc2)cc1` please.
// result 5.49

// query Then this compound: `C=CCOC(=O)c1ccc(S(=O)(=O)N2C(=O)CN(c3ccc(C)c(C)c3)C2=O)cc1`
// result 5.72

Below are some compounds; for each one, tell me its pIC50.
1. O=C1CN(c2ccccc2)C(=O)N1S(=O)(=O)c1cccc2ccccc12
2. Cc1ccc(S(=O)(=O)N2C(=O)CN(c3ccccc3)C2=O)cc1
3. C=CCOC(=O)Cc1cccc(S(=O)(=O)N2C(=O)CN(c3ccccc3)C2=O)c1
4. O=C1CN(c2cnc3ccccc3c2)C(=O)N1S(=O)(=O)c1ccc(Cl)cc1
5. CC(C)(C)OC(=O)c1cccc(N2CC(=O)N(S(=O)(=O)c3ccc(Cl)cc3)C2=O)c1
6. O=C1CN(c2ccccc2)C(=O)N1C(=O)c1ccccc1Cl
7. O=C1CN(c2ccc(Oc3ccccc3)cc2)C(=O)N1S(=O)(=O)c1ccc(Cl)cc1
8. O=C1CN(c2ccc(Cl)c(Cl)c2)C(=O)N1S(=O)(=O)c1ccc2ccccc2c1

// result
1. 5.74
2. 5.35
3. 5.35
4. 4.72
5. 5.01
6. 6.02
7. 5.32
8. 6.28

----------
- Measured On: bovine pancreas α-chymotrypsin (Bos taurus)
- Construct: bovine pancreas α-chymotrypsin (product of Sigma Chemical Co., TypeII); purchased Sigma Chemical Co. TypeII; host or cells: bovine pancreas
- Test Method Notes: Inhibitory activity against chymotrypsin (Ang I conversion, HPLC)
- Assay type: biochemical
- Condition Parameters: bovine pancreas, 37° C., pH 7.5, Ang I substrate; read-out: Inhibitory activities against enzymes (IC50), Chymotrypsin
Hi there, I'd appreciate the recorded IC50 for every entry that follows.

// query Any idea what IC50 came out for COC(=O)c1cccc(S(=O)(=O)N2C(=O)CN(c3ccccc3)C2=O)c1 [Compound 35] on bovine pancreas α-chymotrypsin (Bos taurus)?
// result 1.8 µM

// query And the next one, CC(C)(C)OC(=O)c1cccc(N2CC(=O)N(S(=O)(=O)c3ccc(Cl)cc3)C2=O)c1 [Compound 55] ?
// result 70 µM

// query Now the molecule COc1cccc(S(=O)(=O)N2C(=O)CN(c3ccccc3)C2=O)c1 [Compound 20]
// result 3.7 µM

// query Now try O=C1CN(c2cnc3ccccc3c2)C(=O)N1S(=O)(=O)c1ccc(Cl)cc1 [Compound 80] .
// result 90 µM

// query # iterate: O=C1CN(c2ccccc2)C(=O)N1C(=O)c1ccc(-c2ccccc2)cc1 [Compound 15]
// result 6.9 µM

// input: 3 molecules below; output: IC50 for each
1. O=C1CN(c2ccccc2)C(=O)N1S(=O)(=O)c1cccc(Oc2ccccc2)c1 [Compound 25]
2. C=CCOC(=O)Cc1cccc(S(=O)(=O)N2C(=O)CN(c3ccccc3)C2=O)c1 [Compound 45]
3. O=C1CN(c2ccccc2)C(=O)N1C(=O)c1ccccc1Cl [Compound 10]

// result
["1.4 µM", "3.5 µM", "3.5 µM"]

----------
- Measured On: bovine pancreas α-chymotrypsin (Bos taurus, UniProt P00766)
- Construct: bovine pancreas α-chymotrypsin (product of Sigma Chemical Co., TypeII); purchased Sigma Chemical Co. TypeII; host or cells: bovine pancreas
- Test Method Notes: Inhibitory activity against chymotrypsin (Ang I conversion, HPLC)
- Assay type: biochemical
- Condition Parameters: bovine pancreas, 37° C., pH 7.5, Ang I substrate; read-out: Inhibitory activities against enzymes (IC50), Chymotrypsin
- Protocol: After completion of the reaction, each liquid reaction mixture was subjected to high performance liquid chromatography on Develosil ODS-5 (product of Nomura Kagaku, 4.6 mm across×150 mm long) to develop it at a linear concentration gradient that the concentration of acetonitrile in 0.05% trifluoroacetic acid (hereinafter abbreviated as "TFA") is increased from 0% to 60% in 10 minutes at a flow rate of 2.0 ml/min. Monitoring was performed by the absorbance measurements at 210 nm. […]
Assignment: determine reported IC50 for the given compounds.
Answers are plain numbers, in µM.

Before answering, review these 3 worked examples.
// query Reported IC50 for Cc1ccc(S(=O)(=O)N2C(=O)CN(c3ccccc3)C2=O)cc1 [Compound 5] : what is it?
// result 7

// query Similarly, O=C1CN(c2ccc(Cl)cc2)C(=O)N1S(=O)(=O)c1ccc(Cl)cc1 [Compound 1] ?
// result 0.5

// query Now consider O=C1CN(c2ccc(Oc3ccccc3)cc2)C(=O)N1S(=O)(=O)c1ccc(Cl)cc1 [Compound 30] .
// result 39

Could you now consider this next compound?
// query What measured IC50 goes with O=C(O)COc1ccc(S(=O)(=O)N2C(=O)CN(c3ccccc3)C2=O)cc1 [Compound 40] ?
// result 34

----------
Would you kindly list IC50 for each of these compounds?
- Measured On: Human cardiac chymase (Homo sapiens, UniProt P23946)
- Construct: Human cardiac chymase was purified according to the process of Urata et al; from tissue; host or cells: human heart (cardiac)
- Sequence (P23946 22-247): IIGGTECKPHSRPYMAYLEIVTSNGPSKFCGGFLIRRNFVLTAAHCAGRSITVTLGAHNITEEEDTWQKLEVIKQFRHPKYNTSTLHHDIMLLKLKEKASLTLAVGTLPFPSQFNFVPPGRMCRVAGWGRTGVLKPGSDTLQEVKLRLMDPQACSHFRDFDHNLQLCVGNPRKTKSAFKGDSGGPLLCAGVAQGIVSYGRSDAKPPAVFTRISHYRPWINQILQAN
- Test Method Notes: Inhibitory activity against chymase (Ang I to Ang II conversion, HPLC)
- Type: biochemical
- Condition Parameters: 37° C., pH 7.5, Ang I substrate; read-out: Inhibitory activities against enzymes (IC50), Chymase
Give bare numbers, in nM.

Example entries and their recorded answers appear below.
// query I have this compound here, O=C1CN(c2ccccc2)C(=O)N1S(=O)(=O)c1cccc2ccccc12 [Compound 70] , and I need its recorded IC50.
// result 550

// query And the next one, C=CCOC(=O)Cc1cccc(S(=O)(=O)N2C(=O)CN(c3ccccc3)C2=O)c1 [Compound 45] ?
// result 450

// query Could you do the same for O=C1CN(c2ccc(Cl)c(Cl)c2)C(=O)N1S(=O)(=O)c1ccc2ccccc2c1 [Compound 75] , please?
// result 47

***
// query Give its IC50 value. Item: O=C1CN(c2cnc3ccccc3c2)C(=O)N1S(=O)(=O)c1ccc(Cl)cc1 [Compound 80]
// result 170

----------
- Measured On: bovine pancreas α-chymotrypsin (Bos taurus, UniProt P00766)
- Construct: bovine pancreas α-chymotrypsin (product of Sigma Chemical Co., TypeII); purchased Sigma Chemical Co. TypeII; host or cells: bovine pancreas
- Test Method Notes: Inhibitory activity against chymotrypsin (Ang I conversion, HPLC)
- Assay type: biochemical
Test Readout: IC50 (µM)
Numbers only, in µM.

// query I'm curious: which IC50 was measured for `CN1CCN(C(=O)Cc2ccc(S(=O)(=O)N3C(=O)CN(c4ccccc4)C3=O)cc2)CC1` tested on bovine pancreas α-chymotrypsin (Bos taurus, UniProt P00766)?
// result 5.2
